Assay: Pharmacokinetics in rats after single iv, po or sc dose (plasma and brain)
Type: in vivo, Sprague-Dawley rats
Details: male, Sprague-Dawley, brain/plasma; rat, SC 10.0 mg eq./kg; read-out: Ratio of Brain-to-Plasma AUC(0-∞)
METRIC NAME: Kp
Could you respond with only the numeric value?

Noted for CC12CC3CC(C)(C1)CC(N)(C3)C2 [memantine] : its Kp reads 17.1

----------
Biological target: human PEPT1 (Homo sapiens, UniProt P46059)
Sequence (P46059 whole entry): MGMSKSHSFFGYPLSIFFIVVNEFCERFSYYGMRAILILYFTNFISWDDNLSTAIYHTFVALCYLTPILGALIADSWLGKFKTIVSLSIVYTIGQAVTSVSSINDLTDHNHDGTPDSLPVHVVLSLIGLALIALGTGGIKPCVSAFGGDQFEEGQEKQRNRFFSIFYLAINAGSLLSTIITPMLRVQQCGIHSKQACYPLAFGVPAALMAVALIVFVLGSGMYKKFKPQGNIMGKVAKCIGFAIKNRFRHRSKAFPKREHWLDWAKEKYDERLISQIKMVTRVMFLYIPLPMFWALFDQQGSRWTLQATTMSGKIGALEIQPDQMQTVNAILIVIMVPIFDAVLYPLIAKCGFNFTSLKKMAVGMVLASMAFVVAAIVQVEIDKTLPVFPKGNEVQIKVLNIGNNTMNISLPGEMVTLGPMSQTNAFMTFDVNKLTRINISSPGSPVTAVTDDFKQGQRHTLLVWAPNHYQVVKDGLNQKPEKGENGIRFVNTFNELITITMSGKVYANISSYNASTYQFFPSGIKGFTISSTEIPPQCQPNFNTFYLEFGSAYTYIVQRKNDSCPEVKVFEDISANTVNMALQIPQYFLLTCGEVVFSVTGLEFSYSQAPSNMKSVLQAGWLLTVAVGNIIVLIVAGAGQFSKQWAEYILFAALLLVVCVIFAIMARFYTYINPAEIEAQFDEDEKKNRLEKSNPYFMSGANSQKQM
Assay: Indirect uptake transporter assay, PEPT1
Assay type: in vitro ADME
Details: PEPT1-mediated glycylsarcosine transport
METRIC NAME: IC50

Noted for CC12CC3CC(C)(C1)CC(N)(C3)C2 [memantine] : its IC50 reads 280 µM

----------
Experiment: Pharmacokinetics in rats after single iv, po or sc dose (plasma and brain)
Assay type: in vivo, Sprague-Dawley rats
Details: male, Sprague-Dawley, 10 mg/kg; rat brain, SC 10.0 mg eq./kg; read-out: Observed Tmax
METRIC NAME: Tmax (h)
Write the value in h as a bare number.

Noted for CC12CC3CC(C)(C1)CC(N)(C3)C2 [memantine] : its Tmax reads 1

----------
Experiment: Stability in mouse liver microsomes
Format: in vitro ADME
Conditions: 0.5 mg/mL pooled male microsomes, read-out: Intrinsic Clearance (Cl int) Liver Microsomes
METRIC NAME: microsomal CLint at 1 μM

Noted for CC12CC3CC(C)(C1)CC(N)(C3)C2 [memantine] : its microsomal CLint at 1 μM reads < 13.9 µL/min/mg

----------
Test: Pharmacokinetics in rats after single iv, po or sc dose (plasma and brain)
Format: in vivo, Sprague-Dawley rats
Details: male, Sprague-Dawley, plasma, oral; rat, dose 10 mg/kg, single dose in solution; read-out: C min
METRIC NAME: concentration at 24 h (nM)
Write the value in nM as a bare number.

Noted for CC12CC3CC(C)(C1)CC(N)(C3)C2 [memantine] : its concentration at 24 h reads 30

----------
Test: Pharmacokinetics in rats after single iv, po or sc dose (plasma and brain)
Assay type: in vivo, Sprague-Dawley rats
Conditions: male, Sprague-Dawley, 1 mg/kg; rat brain, SC 1.0 mg eq./kg; read-out: Observed Tmax
METRIC NAME: Tmax (min)
Write the value in min as a bare number.

Noted for CC12CC3CC(C)(C1)CC(N)(C3)C2 [memantine] : its Tmax reads 30

----------
Experiment: Pharmacokinetics in rats after single iv, po or sc dose (plasma and brain)
Type: in vivo, Sprague-Dawley rats
Conditions: male, Sprague-Dawley, rat, brain, iv, 1.22 mg/kg, rat brain, IV 1.22 mg eq./kg; read-out: Observed Cmax
METRIC NAME: Cmax
Number first, unit second: that is the form wanted.

Noted for CC12CC3CC(C)(C1)CC(N)(C3)C2 [memantine] : its Cmax reads 11 µM

----------
Biological target: OCT2 (Homo sapiens)
Construct: expressed in transfected cells; host or cells: CHO cells
Sequence (O15244 whole entry): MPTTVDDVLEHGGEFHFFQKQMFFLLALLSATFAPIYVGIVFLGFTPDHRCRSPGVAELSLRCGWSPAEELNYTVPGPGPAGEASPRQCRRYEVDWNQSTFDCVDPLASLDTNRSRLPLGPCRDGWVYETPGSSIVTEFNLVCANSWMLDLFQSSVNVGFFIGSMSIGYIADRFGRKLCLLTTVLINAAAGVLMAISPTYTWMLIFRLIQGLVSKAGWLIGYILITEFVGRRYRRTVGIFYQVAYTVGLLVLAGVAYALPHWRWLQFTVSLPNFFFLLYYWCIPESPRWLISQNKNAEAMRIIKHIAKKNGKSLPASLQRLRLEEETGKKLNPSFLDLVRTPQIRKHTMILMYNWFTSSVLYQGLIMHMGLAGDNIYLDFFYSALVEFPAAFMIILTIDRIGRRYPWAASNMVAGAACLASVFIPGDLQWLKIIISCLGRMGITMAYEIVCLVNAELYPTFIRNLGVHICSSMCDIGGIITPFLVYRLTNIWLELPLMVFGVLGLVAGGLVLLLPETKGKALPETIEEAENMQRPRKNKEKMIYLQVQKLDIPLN
Experiment: Indirect uptake transporter assay, OCT2
Assay type: in vitro ADME
Conditions: OCT2-mediated metformin uptake
METRIC NAME: pIC50
Hey, just a heads up that pIC50 is the negative log base 10 of the concentration in molar.

Noted for CC12CC3CC(C)(C1)CC(N)(C3)C2 [memantine] : its pIC50 reads 5.05

----------
Assay: in vivo
Details: male, C57Bl/6, mouse, sc, 1 mg/kg, Half-life (t½)
METRIC NAME: half-life (h)
Write the value in h as a bare number.

Noted for CC12CC3CC(C)(C1)CC(N)(C3)C2 [memantine] : its half-life reads 1.64

----------
Assay: Pharmacokinetics in rats after single iv, po or sc dose (plasma and brain)
Type: in vivo, Sprague-Dawley rats
Conditions: male, Sprague-Dawley, 1.22 mg/kg; rat brain, IV 1.22 mg eq./kg
METRIC NAME: AUC(0-t) (µM·h)
Write the value in µM·h as a bare number.

Noted for CC12CC3CC(C)(C1)CC(N)(C3)C2 [memantine] : its AUC(0-t) reads 43

----------
Biological target: human PEPT1 (Homo sapiens)
Assay: Indirect uptake transporter assay, PEPT1
Format: in vitro ADME
Conditions: PEPT1; probe printed in Table 5: E3S (1 μM); methods and text: Gly-Sar
METRIC NAME: IC50 (µM)
Write the value in µM as a bare number.

Noted for CC12CC3CC(C)(C1)CC(N)(C3)C2 [memantine] : its IC50 reads 281

----------
Test: in vivo
Settings: male, C57Bl/6, mouse, sc, 1 mg/kg
METRIC NAME: bioavailability (%)
Write the value in % as a bare number.

Noted for CC12CC3CC(C)(C1)CC(N)(C3)C2 [memantine] : its bioavailability reads 97.8

----------
Test: in vivo
Settings: male, C57Bl/6, mouse, 10 mg/kg, T max
METRIC NAME: Tmax

Noted for CC12CC3CC(C)(C1)CC(N)(C3)C2 [memantine] : its Tmax reads 30 to 60 min

----------
Assay: Pharmacokinetics in rats after single iv, po or sc dose (plasma and brain)
Type: in vivo, Sprague-Dawley rats
Conditions: male, Sprague-Dawley, rat, plasma, iv, 1 mg/kg, rat, printed under 1 mg/kg (iv), cross-species summary; read-out: t 1/2 (converted)
METRIC NAME: half-life (h)
Write the value in h as a bare number.

Noted for CC12CC3CC(C)(C1)CC(N)(C3)C2 [memantine] : its half-life reads 4

----------
Assay: Pharmacokinetics in rats after single iv, po or sc dose (plasma and brain)
Type: in vivo, Sprague-Dawley rats
Settings: male, Sprague-Dawley, rat, brain, po, 10 mg/kg, rat brain, PO 10.0 mg eq./kg; read-out: Half-life (t½) (converted)
METRIC NAME: half-life (h)
Write the value in h as a bare number.

Noted for CC12CC3CC(C)(C1)CC(N)(C3)C2 [memantine] : its half-life reads 3.7

----------
Test: in vivo
Details: male, C57Bl/6, mouse, iv, t 1/2
METRIC NAME: half-life (h)
Write the value in h as a bare number.

Noted for CC12CC3CC(C)(C1)CC(N)(C3)C2 [memantine] : its half-life reads 3

----------
Experiment: Pharmacokinetics in mice after single iv, po or sc dose (plasma and brain)
Settings: male, C57Bl/6, mouse, in vivo, sc, 1 mg/kg
METRIC NAME: Cmax (nM)
Write the value in nM as a bare number.

Noted for CC12CC3CC(C)(C1)CC(N)(C3)C2 [memantine] : its Cmax reads 527

----------
Assay: Pharmacokinetics in rats after single iv, po or sc dose (plasma and brain)
Assay type: in vivo, Sprague-Dawley rats
Conditions: male, Sprague-Dawley, rat, plasma, po, 1 mg/kg, rat, dose 1 mg/kg, single dose in solution (oral values of Table 1); read-out: AUC inf
METRIC NAME: AUC(0-inf)

Noted for CC12CC3CC(C)(C1)CC(N)(C3)C2 [memantine] : its AUC(0-inf) reads 0.6 µM·h

----------
Experiment: Pharmacokinetics in rats after single iv, po or sc dose (plasma and brain)
Type: in vivo, Sprague-Dawley rats
Details: male, Sprague-Dawley, rat, brain, po, 1.22 mg/kg, rat brain, PO 1.22 mg eq./kg; read-out: Observed Cmax
METRIC NAME: Cmax

Noted for CC12CC3CC(C)(C1)CC(N)(C3)C2 [memantine] : its Cmax reads 2160 nM

----------
Assay: in vivo
Conditions: male, C57Bl/6, mouse, po, 1 mg/kg
METRIC NAME: bioavailability (%)
Write the value in % as a bare number.

Noted for CC12CC3CC(C)(C1)CC(N)(C3)C2 [memantine] : its bioavailability reads 84.6

----------
Assay: in vivo
Settings: male, C57Bl/6, mouse, po, 1 mg/kg, T max
METRIC NAME: Tmax (min)
Write the value in min as a bare number.

Noted for CC12CC3CC(C)(C1)CC(N)(C3)C2 [memantine] : its Tmax reads 30

----------
Assay: Stability in human liver microsomes
Assay type: in vitro ADME
Details: 0.5 mg/mL pooled male microsomes, read-out: Intrinsic Clearance (Cl int) Liver Microsomes
METRIC NAME: microsomal CLint at 1 μM

Noted for CC12CC3CC(C)(C1)CC(N)(C3)C2 [memantine] : its microsomal CLint at 1 μM reads < 13.9 µL/min/mg

----------
Assay: Pharmacokinetics in rats after single iv, po or sc dose (plasma and brain)
Type: in vivo, Sprague-Dawley rats
Settings: male, Sprague-Dawley, rat, plasma, sc, 1 mg/kg, rat plasma, SC 1.0 mg eq./kg; read-out: AUC(0-∞)
METRIC NAME: AUC(0-inf) (µM·h)
Write the value in µM·h as a bare number.

Noted for CC12CC3CC(C)(C1)CC(N)(C3)C2 [memantine] : its AUC(0-inf) reads 1.69

----------
Molecular target: OATP2B1 (Homo sapiens)
Construct: expressed in transfected cells; host or cells: MDCKII cells
Sequence (O94956 whole entry): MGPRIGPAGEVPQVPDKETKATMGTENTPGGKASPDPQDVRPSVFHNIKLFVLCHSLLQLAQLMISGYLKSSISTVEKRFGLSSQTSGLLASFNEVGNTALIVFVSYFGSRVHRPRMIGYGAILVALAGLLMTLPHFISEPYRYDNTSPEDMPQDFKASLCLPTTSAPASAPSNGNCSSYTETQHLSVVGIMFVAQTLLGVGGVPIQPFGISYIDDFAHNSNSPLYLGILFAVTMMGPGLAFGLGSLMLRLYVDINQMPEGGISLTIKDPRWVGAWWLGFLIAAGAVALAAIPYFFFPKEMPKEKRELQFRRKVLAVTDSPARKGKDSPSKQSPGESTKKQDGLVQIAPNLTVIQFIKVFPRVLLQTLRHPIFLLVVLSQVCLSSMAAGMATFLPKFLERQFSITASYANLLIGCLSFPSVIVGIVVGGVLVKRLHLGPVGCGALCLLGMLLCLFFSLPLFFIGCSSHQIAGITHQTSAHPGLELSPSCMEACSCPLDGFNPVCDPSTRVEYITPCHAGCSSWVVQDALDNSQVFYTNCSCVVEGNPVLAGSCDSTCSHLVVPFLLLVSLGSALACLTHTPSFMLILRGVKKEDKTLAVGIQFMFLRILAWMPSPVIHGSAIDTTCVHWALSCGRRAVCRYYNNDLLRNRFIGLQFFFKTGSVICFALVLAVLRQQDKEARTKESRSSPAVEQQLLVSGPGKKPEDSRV
Test: Indirect uptake transporter assay, OATP2B1
Type: in vitro ADME
Settings: human, probe 3H-estrone-3-sulfate; at 300 µM; read-out: inhibition of OATP2B1-mediated estrone-3-sulfate transport
METRIC NAME: inhibition at 300 µM (%)
Write the value in % as a bare number.

Noted for CC12CC3CC(C)(C1)CC(N)(C3)C2 [memantine] : its inhibition at 300 µM reads 67
